Test system: PIP5K1C;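 note: KINOMEscan kinase panel screen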
TEST SETTINGS: concentration: 1 μM, replicates: in singlicate; n = 1
Decision: %Inh compared against 20%; not below it gives fulfilled, below it gives not fulfilled.

Before answering, review these 2 worked examples.
- CNc1nc(-c2ccc3c(N)n[nH]c3c2)cc(N2C[C@@H](C(=O)NC3CCCCC3)OC[C@H]2C)n1: fulfilled
- Cc1ccc(NC(=O)Nc2ccccc2)cc1-c1ccc(C(=O)Nc2ccncc2)cc1: not fulfilled

Query string: Please indicate if the recorded %Inh for "COc1nccc(-c2c(-c3ccc(F)cc3)ncn2CCCN2CCOCC2)n1" meets or exceeds 20%.
Result string: not fulfilled

Query string: For this compound, is measured %Inh 20% or higher? "Cc1cccc2c(-c3ccncn3)c(-c3ccc(F)cc3)nn12"
Result string: fulfilled

Query string: Form field: %Inh at least 20%? Entry: "CNc1nc(-c2ccc3c(N)n[nH]c3c2)cc(N2C[C@@H](C(=O)Nc3ccccc3)CC[C@H]2C)n1"
Result string: fulfilled
